// data source = ChEMBL document CHEMBL1154384

- Test: Dissociation constant, pKa of the compound
- Format: physicochemical
Each item that follows carries a reported pKa.
Readout Kind: pKa

chemical_string=O=C(C1=C(c2ccc(CCCOc3c(F)ccc(F)c3Cl)cc2)C[C@H]2CNC[C@H]1N2)N(Cc1cccc(Cl)c1Cl)C1CC1 reported_measurement=8.2
chemical_string=COc1cccc(CN(C(=O)C2=C(c3ccc(CCCOc4c(F)ccc(F)c4Cl)cc3)C[C@H]3CNC[C@H]2N3)C2CC2)c1C reported_measurement=3.6
chemical_string=O=C(C1=C(c2ccc(CCCOc3c(F)ccc(F)c3Cl)cc2)C[C@H]2COC[C@H]1N2)N(Cc1cccc(Cl)c1Cl)C1CC1 reported_measurement=6.5
chemical_string=COc1cccc(CN(C(=O)C2=C(c3ccc(CCCOc4c(F)ccc(F)c4Cl)cc3)C[C@H]3COC[C@H]2N3)C2CC2)c1C reported_measurement=6.5

====

- Experimental Target: Renin (Homo sapiens, UniProt P00797)
- Sequence (P00797 whole entry): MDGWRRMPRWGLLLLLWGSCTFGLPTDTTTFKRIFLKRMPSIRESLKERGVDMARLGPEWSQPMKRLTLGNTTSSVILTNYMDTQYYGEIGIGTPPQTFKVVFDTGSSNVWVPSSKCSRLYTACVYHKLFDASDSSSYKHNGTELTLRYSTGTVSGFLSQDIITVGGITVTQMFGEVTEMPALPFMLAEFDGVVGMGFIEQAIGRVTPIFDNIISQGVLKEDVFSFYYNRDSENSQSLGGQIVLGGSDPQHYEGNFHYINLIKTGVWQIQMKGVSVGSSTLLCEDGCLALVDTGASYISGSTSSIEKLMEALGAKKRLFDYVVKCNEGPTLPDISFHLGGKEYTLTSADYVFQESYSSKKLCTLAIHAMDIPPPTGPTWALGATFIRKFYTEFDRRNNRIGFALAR
- Test: Inhibition of human rennin in buffer assessed as accumulation of angiotensin 1 using human tetradecapeptide by immunoassay
Readout Kind: log10 of IC50 (log10 of the value in nM)

chemical_string=COc1cccc(CN(C(=O)C2=C(c3ccc(CCCOc4c(F)ccc(F)c4Cl)cc3)C(C)(C)CNC2)C2CC2)c1C reported_measurement=2.23
chemical_string=O=C(C1=C(c2ccc(CCCOc3c(F)ccc(F)c3Cl)cc2)C[C@H]2CS(=O)(=O)C[C@H]1N2)N(Cc1cccc(Cl)c1Cl)C1CC1 reported_measurement=0.81
chemical_string=COc1cccc(CN(C(=O)C2=C(c3ccc(CCCOc4c(F)ccc(F)c4Cl)cc3)C[C@H]3CNC[C@H]2N3)C2CC2)c1C reported_measurement=0.14
chemical_string=COc1cccc(CN(C(=O)C2=C(c3ccc(CCCOc4c(F)ccc(F)c4Cl)cc3)C[C@H]3CC[C@H]2N3)C2CC2)c1C reported_measurement=-0.13
chemical_string=COc1cccc(CN(C(=O)C2=C(c3ccc(CCCOc4c(F)ccc(F)c4Cl)cc3)CCNC2)C2CC2)c1C reported_measurement=0.30
chemical_string=O=C(C1=C(c2ccc(CCCOc3c(F)ccc(F)c3Cl)cc2)CCNC1)N(Cc1cccc(Cl)c1Cl)C1CC1 reported_measurement=0.08
chemical_string=O=C(C1=C(c2ccc(CCCOc3c(F)ccc(F)c3Cl)cc2)C2(CC2)CNC1)N(Cc1cccc(Cl)c1Cl)C1CC1 reported_measurement=1.53

====

Each item that follows carries a reported log10(IC50).
- Experimental Target: Renin (Homo sapiens, UniProt P00797)
- Test: Inhibition of human rennin in human plasma assessed as accumulation of angiotensin 1 using human tetradecapeptide by immunoassay
- Assay type: cell-free
Readout Kind: log10(IC50) (log10 of the value in nM)

chemical_string=O=C(C1=C(c2ccc(CCCOc3c(F)ccc(F)c3Cl)cc2)C[C@H]2COC[C@H]1N2)N(Cc1cccc(Cl)c1Cl)C1CC1 experimental_target="Renin (Homo sapiens, UniProt P00797)" reported_measurement=1.74
chemical_string=O=C(C1=C(c2ccc(CCCOc3c(F)ccc(F)c3Cl)cc2)CCNC1)N(Cc1cccc(Cl)c1Cl)C1CC1 experimental_target="Renin (Homo sapiens, UniProt P00797)" reported_measurement=1.72
chemical_string=O=C(C1=C(c2ccc(CCCOc3c(F)ccc(F)c3Cl)cc2)C[C@H]2CNC[C@H]1N2)N(Cc1cccc(Cl)c1Cl)C1CC1 experimental_target="Renin (Homo sapiens, UniProt P00797)" reported_measurement=1.56
chemical_string=COc1cccc(CN(C(=O)C2=C(c3ccc(CCCOc4c(F)ccc(F)c4Cl)cc3)C[C@H]3CNC[C@H]2N3)C2CC2)c1C experimental_target="Renin (Homo sapiens, UniProt P00797)" reported_measurement=1.73
chemical_string=COc1cccc(CN(C(=O)C2=C(c3ccc(CCCOc4c(F)ccc(F)c4Cl)cc3)C3(CC3)CNC2)C2CC2)c1C experimental_target="Renin (Homo sapiens, UniProt P00797)" reported_measurement=3.87
chemical_string=CC1(C)CNCC(C(=O)N(Cc2cccc(Cl)c2Cl)C2CC2)=C1c1ccc(CCCOc2c(F)ccc(F)c2Cl)cc1 experimental_target="Renin (Homo sapiens, UniProt P00797)" reported_measurement=3.30
chemical_string=COc1cccc(CN(C(=O)C2=C(c3ccc(CCCOc4c(F)ccc(F)c4Cl)cc3)C(C)(C)CNC2)C2CC2)c1C experimental_target="Renin (Homo sapiens, UniProt P00797)" reported_measurement=3.87
